compounds and their reported Kd
# targetOrSystem: UniProtKB P01116
# procedureDetails: Binding to KRAS by surface plasmon resonance (SPR), Single Cycle Kinetics
# details: SPR Single Cycle Kinetics, GDP-bound KRAS wild-type protein, 1:1 binding model; read-out: KRAS KD
Express it in pM; write the number only.

CCC[C@H]1C(=O)N[C@@H]([C@@H](C)CC)C(=O)N(C)CC(=O)N(C)[C@H]2CCCCN(C2=O)[C@@H](Cc2ccc(C(F)(F)F)cc2)C(=O)N(C)CC(=O)N[C@@H](CCc2cc(F)c(C(F)(F)F)c(F)c2)C(=O)N2C[C@H](OCC)C[C@H]2C(=O)NC2(CCC2)C(=O)N(C)[C@@H](C2CCCC2)C(=O)N(C)[C@H](C(=O)N2CCOCC2)CC(=O)N1C [PP0709]    30

Note: attention shifts to another entry.
Data request: Name the recorded Kd of the item CCC[C@H]1C(=O)N[C@@H]([C@@H](C)CC)C(=O)N2CCC[C@H]2C(=O)N(C)[C@H]2C/C=C\CCN(C2=O)[C@@H](Cc2ccc(C(F)F)cc2)C(=O)N(C)CC(=O)N[C@@H](CCc2ccc(Cl)c(Cl)c2)C(=O)N2C[C@H](OC3CCC3)C[C@H]2C(=O)NC2(CC(C)(C)C2)C(=O)N(C)[C@@H](C(CC)CC)C(=O)N(C)[C@H](C(=O)N(C)C)CC(=O)N1C [PP2646] in your answer.
Data returned: 1600

----------
molecules and their reported Kd
# targetOrSystem: GDP-bound KRAS wild-type protein (Homo sapiens, UniProt P01116)
# Sequence (P01116 whole entry): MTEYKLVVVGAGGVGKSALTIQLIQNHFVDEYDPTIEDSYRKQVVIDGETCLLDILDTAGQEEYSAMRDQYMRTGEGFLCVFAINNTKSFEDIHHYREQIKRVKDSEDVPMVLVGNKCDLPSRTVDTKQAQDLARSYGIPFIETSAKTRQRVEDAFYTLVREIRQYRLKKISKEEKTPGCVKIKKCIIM
# procedureDetails: Binding to KRAS by surface plasmon resonance (SPR), Single Cycle Kinetics
# details: SPR, Single Cycle Kinetics, GDP-bound KRAS wild-type protein; read-out: KRAS KD
Hi, when you answer, please include the unit after the number. Thanks!

CCO[C@@H]1C[C@H]2C(=O)NC3(CC(C)(C)C3)C(=O)N(C)[C@@H](C(CC)CC)C(=O)N(C)[C@H](C(=O)N(C)C)CC(=O)N(C)[C@@H](CC3CC3)C(=O)N[C@@H]([C@@H](C)CC)C(=O)N(C)CC(=O)N(C)[C@H]3C/C=C\CCN(C3=O)[C@@H](Cc3ccc(C(F)(F)F)cc3)C(=O)N(C)CC(=O)N[C@@H](CCc3ccc(C(F)(F)F)c(OC)c3)C(=O)N2C1    0.37 nM

Data request: Name the recorded Kd of the item CC[C@H](C)[C@@H]1NC(=O)[C@H](COC)N(C)C(=O)C[C@@H](C(=O)N2CCOCC2)N(C)C(=O)[C@H](C2CCCC2)N(C)C(=O)C2(CCC2)NC(=O)[C@@H]2C[C@@H](OCC(C)C)CN2C(=O)[C@H](CCc2cc(F)c(C(F)(F)F)c(F)c2)NC(=O)CN(C)C(=O)[C@H](Cc2ccc(C(F)(F)F)cc2)N2CCCCC[C@@H](C2=O)N(C)C(=O)CN(C)C1=O in your answer.
Data returned: 1.1 nM

----------
# targetOrSystem: GDP-bound KRAS wild-type protein (Homo sapiens)
# procedureDetails: Binding to KRAS by surface plasmon resonance (SPR), Single Cycle Kinetics
# details: SPR Single Cycle Kinetics, GDP-bound KRAS wild-type protein, 1:1 binding model; read-out: KRAS KD
*1 amine or outer side, *2 acyl side, *3 side chain or, on linkers, in order; H or OH if unused. Where a SMILES comes first, the peptide text is derived from it. Bridges are numbered along the chain shown (N, C = ends). [ ]: non-standard residue; d: D form. The star is where a group is joined. hPhe(3,5-F2-4-CF3) = N[C@@H](CCc1cc(F)c(C(F)(F)F)c(F)c1)C(=O)O; hPhe(3-Cl-4-CF3) = N[C@@H](CCc1ccc(C(F)(F)F)c(Cl)c1)C(=O)O; NPrPhe(4-CF3) = CCCN[C@@H](Cc1ccc(C(F)(F)F)cc1)C(=O)O; NMeGly(cPent) = CN[C@H](C(=O)O)C1CCCC1; X11 = CCC[C@](C)(N[*:1])C(=O)[*:2]; Gly(cBu) = N[C@H](C(=O)O)C1CCC1; NMeD = CN[C@@H](CC(=O)O)C(=O)O; NMeL = CN[C@@H](CC(C)C)C(=O)O; Morpholide = C1CN(*)CCO1; Ac5c = NC1(C(=O)O)CCCC1; Aze = O=C(O)[C@@H]1CCN1; Ac4c = NC1(C(=O)O)CCC1; Sar = CNCC(=O)O
Entries get a class label from measured Kd. See ranges: bottom bin: < 0.8 nM; middle bin: ≥ 0.8 nM and < 2 nM; top bin: ≥ 2 nM

Data request: Assign a category based on measured Kd for CCO[C@@H]1C[C@H]2C(=O)NC3(CCC3)C(=O)N(C)[C@@H](C3CCCC3)C(=O)N(C)[C@H](C(=O)N3CCOCC3)CC(=O)N(C)C[C@@H](C)C(=O)N[C@@H]([C@@H](C)CC)C(=O)N(C)CC(=O)N(C)[C@H]3CCCCN(C3=O)[C@@H](Cc3ccc(C(F)(F)F)cc3)C(=O)N(C)CC(=O)N[C@@H](CCc3cc(F)c(C(F)(F)F)c(F)c3)C(=O)N2C1 and give only the class name.
Data returned: top bin

Data request: Assign a category based on measured Kd for CCO[C@@H]1C[C@H]2C(=O)NC3(CC(C)(C)C3)C(=O)N(C)[C@@H](C3CCCC3)C(=O)N(C)[C@H](C(=O)N(C)C)CC(=O)N(C)[C@@H](CC(F)(F)F)C(=O)N[C@@H]([C@@H](C)CC)C(=O)N(C)CC(=O)N(C)[C@H]3C/C=C\CCN(C3=O)[C@@H](Cc3ccc(C(F)(F)F)cc3)C(=O)N(C)CC(=O)N[C@@H](CCc3ccc(Cl)c(Cl)c3)C(=O)N2C1 and give only the class name.
Data returned: bottom bin

Data request: Assign a category based on measured Kd for CCCN1C(=O)[C@@H]2CCN2C(=O)CN(C)C(=O)[C@H]([C@@H](C)CC)NC(=O)[C@H](CC(C)C)N(C)C(=O)C[C@@H](C(=O)N2CCOCC2)N(C)C(=O)[C@H](C2CCCC2)N(C)C(=O)[C@](C)(CCC)NC(=O)[C@@H]2CCCN2C(=O)[C@H](CCc2cc(F)c(C(F)(F)F)c(F)c2)NC(=O)CN(C)C(=O)[C@@H]1Cc1ccc(C(F)(F)F)cc1 [PP0794] ([NMeL]I[Sar][Aze][NPrPhe(4-CF3)][Sar][hPhe(3,5-F2-4-CF3)]P[X11][NMeGly(cPent)][NMeD]-Morpholide; lactam N-11) and give only the class name.
Data returned: middle bin

Data request: Assign a category based on measured Kd for CCC[C@H]1C(=O)N[C@@H]([C@@H](C)CC)C(=O)N(C2CC2)CC(=O)N(C)[C@H]2C/C=C\CCN(C2=O)[C@@H](Cc2ccc(C(F)(F)F)cc2)C(=O)N(C)CC(=O)N[C@@H](CCc2ccc(C(F)(F)F)c(OC)c2)C(=O)N2C[C@H](OCC)C[C@H]2C(=O)NC2(CC(C)(C)C2)C(=O)N(C)[C@@H](CC2CC2)C(=O)N(C)[C@H](C(=O)N(C)C)CC(=O)N1C and give only the class name.
Data returned: top bin

Data request: Assign a category based on measured Kd for CCC[C@H]1C(=O)N[C@@H]([C@@H](C)CC)C(=O)N(C)CC(=O)N(C)[C@H]2C/C=C\CCN(C2=O)[C@@H](Cc2ccc(C)cc2)C(=O)N(C)CC(=O)N[C@@H](CCc2ccc3c(C)cn(C)c3c2)C(=O)N2C[C@H](OCC)C[C@H]2C(=O)NC2(CC(C)(C)C2)C(=O)N(C)[C@@H](C2CCCC2)C(=O)N(C)[C@H](C(=O)N(C)C)CC(=O)N1C and give only the class name.
Data returned: middle bin

Data request: Assign a category based on measured Kd for CC[C@H](C)[C@@H]1NC(=O)[C@H](CC)N(C)C(=O)C[C@@H](C(=O)N(C)C)N(CC)C(=O)[C@H](C2CCCC2)N(C)C(=O)C2(CCC2)NC(=O)[C@@H]2CCN2C(=O)[C@H](CCc2cc(F)c(C(F)(F)F)c(F)c2)NC(=O)CN(C)C(=O)[C@H](Cc2ccc(C(F)(F)F)cc2)N2CCCC[C@@H](C2=O)N(C)C(=O)CN(C)C1=O and give only the class name.
Data returned: bottom bin

Data request: Assign a category based on measured Kd for CCC[C@H]1C(=O)N[C@@H]([C@@H](C)CC)C(=O)N2CCC[C@H]2C(=O)N(C)[C@H]2C/C=C\CCN(C2=O)[C@@H](Cc2ccc(C)cc2)C(=O)N(C)CC(=O)N[C@@H](CCc2ccc(Cl)c(Cl)c2)C(=O)N2C[C@H](OCC)C[C@H]2C(=O)NC2(CC(C)(C)C2)C(=O)N(C)[C@@H](C(CC)CC)C(=O)N(C)[C@H](C(=O)N(C)C)CC(=O)N1C and give only the class name.
Data returned: top bin

Data request: Assign a category based on measured Kd for CCCN1C(=O)CN(C)C(=O)CN(C)C(=O)[C@H]([C@@H](C)CC)NC(=O)[C@H](CC(C)C)N(C)C(=O)C[C@@H](C(=O)N2CCOCC2)N(C)C(=O)[C@H](C2CCCC2)N(C)C(=O)[C@@H](C)NC(=O)[C@@H]2CCCN2C(=O)[C@H](CCc2ccc(C(F)(F)F)c(Cl)c2)NC(=O)CN(C)C(=O)[C@@H]1Cc1ccc(C(F)(F)F)cc1 [PP0150] ([NMeL]I[Sar][Sar][NPrPhe(4-CF3)][Sar][hPhe(3-Cl-4-CF3)]P[dA][NMeGly(cPent)][NMeD]-Morpholide; lactam N-11) and give only the class name.
Data returned: middle bin

Data request: Assign a category based on measured Kd for CCCN1C(=O)[C@@H]2CCN2C(=O)CN(C)C(=O)[C@H]([C@@H](C)CC)NC(=O)[C@H](CC(C)C)N(C)C(=O)C[C@@H](C(=O)N(C)C)N(C)C(=O)[C@H](C2CCCC2)N(C)C(=O)C2(CCC2)NC(=O)[C@@H]2CCCN2C(=O)[C@H](CCc2ccc(C(F)(F)F)c(Cl)c2)NC(=O)CN(C)C(=O)[C@@H]1Cc1ccc(C(F)(F)F)cc1 [PP0441] ([NMeL]I[Sar][Aze][NPrPhe(4-CF3)][Sar][hPhe(3-Cl-4-CF3)]P[Ac4c][NMeGly(cPent)][NMeD]-NMe2; lactam N-11) and give only the class name.
Data returned: bottom bin

Data request: Assign a category based on measured Kd for CCCN1C(=O)CN(C)C(=O)[C@@H]2CCN2C(=O)[C@H](C2CCC2)NC(=O)[C@H](CC(C)C)N(C)C(=O)C[C@@H](C(=O)N2CCOCC2)N(C)C(=O)[C@H](C2CCCC2)N(C)C(=O)C2(CCCC2)NC(=O)[C@@H]2CCCN2C(=O)[C@H](CCc2ccc(C(F)(F)F)c(Cl)c2)NC(=O)CN(C)C(=O)[C@@H]1Cc1ccc(C(F)(F)F)cc1 [PP0305] ([NMeL][Gly(cBu)][Aze][Sar][NPrPhe(4-CF3)][Sar][hPhe(3-Cl-4-CF3)]P[Ac5c][NMeGly(cPent)][NMeD]-Morpholide; lactam N-11) and give only the class name.
Data returned: middle bin
